// data source = patent US11434246B2

- EXPERIMENTAL_SYSTEM: UniProtKB P35408
- METHOD_NOTES: EP4 Antagonism by CRE-PLAP Reporter Assay (SE302 cells, PGE2-stimulated)
- Assay type: cell-based
- Set-up: HEK293 cells express endogenous EP4; endogenous in cells; host or cells: SE302 (HEK293 clone with CRE-PLAP reporter)
- STUDY_CONDITIONS: SE302 (HEK293) cells, 3 ng/mL PGE2, overnight; single or multiple assay average values
pIC50: −log10 of the molar value.

{"columns": ["COMPOUND", "pIC50"],
 "data": [
  ["C=C1CCC(CN2CCn3nc(C(F)(F)F)c(C(=O)N[C@@H](C)c4ccc(C(=O)O)cc4)c32)CC1 [Compound 79]", 7.72],
  ["O=C(O)c1ccc([C@H](CO)NC(=O)c2c(C(F)(F)F)nn3c2N(Cc2cccc(C(F)(F)F)c2)CC3)cc1 [Compound 87]", 7.46],
  ["C[C@H](NC(=O)c1c(C(F)(F)F)nn2c1N(Cc1cccc(C(F)(F)F)c1)CC2)c1ccc(C(=O)NS(=O)(=O)c2ccc(F)c(F)c2)cc1 [Compound 53]", 8.41],
  ["C[C@H](NC(=O)c1c(C(F)(F)F)nn2c1N(Cc1ccc(F)cc1)CC2)c1ccc(C(=O)O)cc1 [Compound 14]", 9.24]
]}

* * *

- EXPERIMENTAL_SYSTEM: EP4 (Homo sapiens, UniProt P35408)
- Sequence (P35408 whole entry): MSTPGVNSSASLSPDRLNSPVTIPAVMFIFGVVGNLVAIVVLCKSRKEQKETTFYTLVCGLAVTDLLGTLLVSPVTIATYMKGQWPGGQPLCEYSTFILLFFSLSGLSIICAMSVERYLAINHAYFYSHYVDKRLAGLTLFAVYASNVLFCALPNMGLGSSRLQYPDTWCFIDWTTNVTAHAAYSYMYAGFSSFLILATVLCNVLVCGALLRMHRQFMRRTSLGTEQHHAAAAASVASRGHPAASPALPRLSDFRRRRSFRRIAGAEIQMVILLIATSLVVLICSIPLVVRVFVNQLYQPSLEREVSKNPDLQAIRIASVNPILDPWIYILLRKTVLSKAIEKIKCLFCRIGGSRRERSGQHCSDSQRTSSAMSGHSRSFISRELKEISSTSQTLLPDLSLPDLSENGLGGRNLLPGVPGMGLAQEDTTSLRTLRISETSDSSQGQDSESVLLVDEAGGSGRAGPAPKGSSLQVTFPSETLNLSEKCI
- METHOD_NOTES: EP4 Antagonism by CRE-PLAP Reporter Assay (SE302 cells, PGE2-stimulated)
- STUDY_CONDITIONS: SE302 (HEK293) cells, 3 ng/mL PGE2, overnight; single or multiple assay average values
pIC50: −log10 of the molar value.
ENDPOINT_LABEL: pIC50

{"columns": ["COMPOUND", "NUMERIC_READOUT"],
 "data": [
  ["C[C@H](NC(=O)c1c(C(F)(F)F)nn2c1N(Cc1ccc(C(F)(F)F)cc1)CC2)c1ccc(C(=O)O)cc1 [Compound 3]", 8.50],
  ["C[C@H](NC(=O)c1c(C(F)(F)F)nn2c1N(Cc1ccc(I)c(C(F)(F)F)c1)CC2)c1ccc(C(=O)O)cc1 [Compound 68]", 7.96],
  ["C[C@H](NC(=O)c1c(C(F)(F)F)nn2c1N(Cc1cccc(CN3CCn4nc(C(F)(F)F)c(C(=O)N[C@@H](C)c5ccc(C(=O)O)cc5)c43)c1)CC2)c1ccc(C(=O)O)cc1 [Compound 66]", 7.45]
]}

* * *

- EXPERIMENTAL_SYSTEM: EP4 (Homo sapiens, UniProt P35408)
- METHOD_NOTES: EP4 Antagonism by CRE-PLAP Reporter Assay (SE302 cells, PGE2-stimulated)
- STUDY_CONDITIONS: SE302 (HEK293) cells, 3 ng/mL PGE2, overnight; single or multiple assay average values

{"columns": ["COMPOUND", "IC50, nM"],
 "data": [
  ["C[C@H](NC(=O)c1c(C(F)(F)F)nn2c1N(Cc1ccc(C(F)(F)F)cc1)CC2)c1ccc(-c2ccoc2)cc1", 150],
  ["C[C@H](NC(=O)c1c(C(F)(F)F)nn2c1N(Cc1ccc(Cl)c(Cl)c1)CC2)c1ccc(C(=O)O)cc1", 0.44],
  ["C[C@H](NC(=O)c1c(C(F)(F)F)nn2c1N(Cc1cccc(C(F)(F)CO)c1)CC2)c1ccc(C(=O)O)cc1", 4.26],
  ["C[C@H](NC(=O)c1c(C(F)(F)F)nn2c1N(CC1CCC(CF)CC1)CC2)c1ccc(C(=O)O)cc1 (stereo partly shown)", 63]
]}
